targetOrTestSystem: DNA-dependent protein kinase catalytic subunit (Homo sapiens, UniProt P78527)
Sequence (P78527 whole entry): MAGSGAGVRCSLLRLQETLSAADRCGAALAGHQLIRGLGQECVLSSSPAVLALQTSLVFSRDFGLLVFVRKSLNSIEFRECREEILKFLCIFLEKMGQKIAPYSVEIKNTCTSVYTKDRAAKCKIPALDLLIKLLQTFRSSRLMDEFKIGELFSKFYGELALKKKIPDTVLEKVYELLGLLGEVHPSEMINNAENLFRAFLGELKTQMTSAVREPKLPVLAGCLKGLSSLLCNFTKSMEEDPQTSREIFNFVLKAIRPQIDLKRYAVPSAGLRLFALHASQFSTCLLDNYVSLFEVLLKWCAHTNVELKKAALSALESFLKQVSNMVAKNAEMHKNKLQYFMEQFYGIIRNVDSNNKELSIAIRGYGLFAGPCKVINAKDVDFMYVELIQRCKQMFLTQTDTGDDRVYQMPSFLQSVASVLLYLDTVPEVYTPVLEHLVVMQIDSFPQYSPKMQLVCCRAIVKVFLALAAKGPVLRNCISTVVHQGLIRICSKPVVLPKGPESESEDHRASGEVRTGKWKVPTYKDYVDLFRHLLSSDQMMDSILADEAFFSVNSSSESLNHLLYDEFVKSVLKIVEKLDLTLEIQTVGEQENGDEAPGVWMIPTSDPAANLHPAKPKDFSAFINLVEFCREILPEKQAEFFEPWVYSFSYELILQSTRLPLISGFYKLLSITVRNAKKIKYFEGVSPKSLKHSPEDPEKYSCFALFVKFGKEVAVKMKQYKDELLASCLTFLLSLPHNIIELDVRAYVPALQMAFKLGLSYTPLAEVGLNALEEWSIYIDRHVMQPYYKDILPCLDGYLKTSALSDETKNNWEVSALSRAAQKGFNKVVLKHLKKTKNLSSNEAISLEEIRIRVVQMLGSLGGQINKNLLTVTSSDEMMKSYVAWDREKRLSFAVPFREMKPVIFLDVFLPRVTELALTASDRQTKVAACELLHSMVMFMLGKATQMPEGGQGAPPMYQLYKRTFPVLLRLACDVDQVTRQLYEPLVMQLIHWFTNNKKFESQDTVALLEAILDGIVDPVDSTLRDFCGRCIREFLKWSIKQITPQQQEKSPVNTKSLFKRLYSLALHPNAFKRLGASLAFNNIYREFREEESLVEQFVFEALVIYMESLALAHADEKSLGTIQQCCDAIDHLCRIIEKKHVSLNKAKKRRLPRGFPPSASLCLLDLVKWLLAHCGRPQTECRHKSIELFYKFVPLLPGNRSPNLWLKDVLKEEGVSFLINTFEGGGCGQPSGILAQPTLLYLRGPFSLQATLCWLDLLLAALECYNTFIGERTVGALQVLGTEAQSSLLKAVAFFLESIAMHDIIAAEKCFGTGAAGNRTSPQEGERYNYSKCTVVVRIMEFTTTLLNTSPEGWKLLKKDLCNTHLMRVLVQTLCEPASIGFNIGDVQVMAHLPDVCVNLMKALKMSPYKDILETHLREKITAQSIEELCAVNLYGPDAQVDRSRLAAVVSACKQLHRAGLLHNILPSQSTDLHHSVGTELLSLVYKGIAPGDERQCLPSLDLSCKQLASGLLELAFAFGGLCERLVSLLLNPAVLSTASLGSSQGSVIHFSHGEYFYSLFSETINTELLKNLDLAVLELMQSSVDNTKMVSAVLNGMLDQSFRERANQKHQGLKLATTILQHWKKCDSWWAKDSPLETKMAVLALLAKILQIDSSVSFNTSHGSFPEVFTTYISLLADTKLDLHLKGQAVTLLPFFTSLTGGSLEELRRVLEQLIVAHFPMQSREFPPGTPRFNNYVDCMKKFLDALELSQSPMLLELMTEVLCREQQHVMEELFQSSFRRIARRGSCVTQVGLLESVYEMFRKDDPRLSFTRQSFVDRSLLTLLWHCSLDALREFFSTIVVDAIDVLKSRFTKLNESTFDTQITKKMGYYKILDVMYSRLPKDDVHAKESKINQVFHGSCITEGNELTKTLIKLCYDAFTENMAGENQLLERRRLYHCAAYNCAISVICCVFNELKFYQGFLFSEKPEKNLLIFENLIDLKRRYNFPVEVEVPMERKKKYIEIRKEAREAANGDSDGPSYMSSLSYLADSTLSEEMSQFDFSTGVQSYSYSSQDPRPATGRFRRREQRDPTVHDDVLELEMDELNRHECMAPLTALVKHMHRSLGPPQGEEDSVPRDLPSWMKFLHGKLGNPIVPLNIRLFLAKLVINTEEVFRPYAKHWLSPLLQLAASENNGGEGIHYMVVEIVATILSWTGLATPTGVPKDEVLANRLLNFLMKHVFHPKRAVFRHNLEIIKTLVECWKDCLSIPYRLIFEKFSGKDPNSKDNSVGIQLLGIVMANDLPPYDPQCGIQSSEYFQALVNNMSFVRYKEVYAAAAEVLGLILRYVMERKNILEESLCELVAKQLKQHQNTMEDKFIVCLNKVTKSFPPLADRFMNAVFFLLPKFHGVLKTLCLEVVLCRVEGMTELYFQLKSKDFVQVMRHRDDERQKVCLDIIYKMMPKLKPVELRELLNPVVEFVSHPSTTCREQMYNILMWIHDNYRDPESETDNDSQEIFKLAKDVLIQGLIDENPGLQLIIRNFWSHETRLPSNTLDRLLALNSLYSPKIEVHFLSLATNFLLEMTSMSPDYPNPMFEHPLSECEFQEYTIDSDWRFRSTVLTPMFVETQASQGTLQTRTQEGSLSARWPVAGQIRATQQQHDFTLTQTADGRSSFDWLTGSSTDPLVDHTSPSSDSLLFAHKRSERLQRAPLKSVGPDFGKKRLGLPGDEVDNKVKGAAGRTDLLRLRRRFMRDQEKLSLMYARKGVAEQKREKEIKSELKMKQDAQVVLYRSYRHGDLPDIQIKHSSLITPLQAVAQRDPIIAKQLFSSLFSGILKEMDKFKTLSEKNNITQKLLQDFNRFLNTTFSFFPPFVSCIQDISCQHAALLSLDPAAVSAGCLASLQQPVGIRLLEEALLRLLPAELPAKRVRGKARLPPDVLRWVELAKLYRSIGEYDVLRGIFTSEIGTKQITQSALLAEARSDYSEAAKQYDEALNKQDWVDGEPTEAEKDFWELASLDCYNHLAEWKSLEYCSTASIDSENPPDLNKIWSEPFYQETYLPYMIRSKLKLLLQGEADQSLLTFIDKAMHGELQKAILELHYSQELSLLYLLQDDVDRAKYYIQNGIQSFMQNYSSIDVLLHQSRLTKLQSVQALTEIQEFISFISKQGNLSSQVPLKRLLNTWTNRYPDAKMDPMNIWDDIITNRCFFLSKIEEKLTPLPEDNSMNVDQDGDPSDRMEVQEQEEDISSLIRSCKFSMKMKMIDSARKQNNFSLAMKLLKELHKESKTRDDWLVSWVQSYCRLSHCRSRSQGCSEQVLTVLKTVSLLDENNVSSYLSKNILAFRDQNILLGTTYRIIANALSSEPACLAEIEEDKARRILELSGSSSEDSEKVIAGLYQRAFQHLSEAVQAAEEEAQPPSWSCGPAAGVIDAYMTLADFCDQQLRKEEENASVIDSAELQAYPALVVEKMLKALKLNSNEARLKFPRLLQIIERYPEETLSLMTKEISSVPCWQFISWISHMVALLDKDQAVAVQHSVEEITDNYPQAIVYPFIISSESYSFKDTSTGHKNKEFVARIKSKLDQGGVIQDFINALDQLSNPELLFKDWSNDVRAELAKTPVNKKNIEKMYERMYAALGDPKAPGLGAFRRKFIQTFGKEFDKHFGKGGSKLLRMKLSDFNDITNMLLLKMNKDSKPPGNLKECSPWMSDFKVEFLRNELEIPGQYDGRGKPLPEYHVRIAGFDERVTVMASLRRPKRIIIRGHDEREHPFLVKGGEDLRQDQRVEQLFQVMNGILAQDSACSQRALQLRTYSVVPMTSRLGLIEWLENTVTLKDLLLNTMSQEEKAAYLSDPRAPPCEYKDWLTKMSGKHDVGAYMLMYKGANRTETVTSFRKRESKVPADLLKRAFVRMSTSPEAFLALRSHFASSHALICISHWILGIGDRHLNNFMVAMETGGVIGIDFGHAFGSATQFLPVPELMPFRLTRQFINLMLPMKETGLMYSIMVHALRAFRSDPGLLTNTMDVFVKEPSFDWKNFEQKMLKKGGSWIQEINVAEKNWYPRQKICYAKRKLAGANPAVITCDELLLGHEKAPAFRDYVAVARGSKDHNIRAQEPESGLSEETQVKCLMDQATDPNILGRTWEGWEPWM
protocolText: Inhibition of DNA-PK Kinase
pIC50: −log10 of the molar value.
measurementType: pIC50

>  <compound>
COC1(OC)C2CC3CC1CC(n1c(=O)n(C)c4cnc(Nc5cc(F)c(C(N)=O)cc5C)nc41)(C3)C2

>  <targetOrTestSystem>
DNA-dependent protein kinase catalytic subunit (Homo sapiens, UniProt P78527)

>  <pIC50>
11.00

$$$$
>  <compound>
Cc1cc2ncnn2cc1Nc1ncc2c(n1)n(C1C3CC4CC1CC(O)(C4)C3)c(=O)n2C (stereo unspecified) [US12552793, Compound 16-1]

>  <targetOrTestSystem>
DNA-dependent protein kinase catalytic subunit (Homo sapiens, UniProt P78527)

>  <pIC50>
9.28

$$$$
>  <compound>
Cc1cc2ncnn2cc1Nc1ncc2c(n1)n(C1C3CC4CC1CC(O)(C4)C3)c(=O)n2C (stereo unspecified) [US12552793, Compound 16-2]

>  <targetOrTestSystem>
DNA-dependent protein kinase catalytic subunit (Homo sapiens, UniProt P78527)

>  <pIC50>
8.60

$$$$
>  <compound>
Cc1cc(C(N)=O)c(F)cc1Nc1ncc2c(n1)n(C13CC4CC(C1)C(O)C(C4)C3)c(=O)n2C (stereo unspecified) [US12552793, Compound 17-2]

>  <targetOrTestSystem>
DNA-dependent protein kinase catalytic subunit (Homo sapiens, UniProt P78527)

>  <pIC50>
8.66

$$$$

A. [2H]C1(O)C2CC3CC1CC(n1c(=O)n(C)c4cnc(Nc5cc(F)c(C(N)=O)cc5C)nc41)(C3)C2 (stereo unspecified) [US12552793, Compound 23-1]
B. Cc1cc(C(N)=O)c(F)cc1Nc1ncc2c(n1)n(C13CC4CC(C1)C(O)C(C4)C3)c(=O)n2C (stereo unspecified) [US12552793, Compound 17-1]
Q. Given the listed records, identify the one among A and B with higher pIC50. Pick one; state its label.
A. B
(B: 11.00, A: 8.55)

###

targetOrTestSystem: DNA-dependent protein kinase catalytic subunit (Homo sapiens, UniProt P78527)
protocolText: Inhibition of DNA-PK Kinase
pIC50: −log10 of the molar value.
measurementType: pIC50

>  <compound>
[2H]C1(O)C2CC3CC1CC(n1c(=O)n(C)c4cnc(Nc5cn6ncnc6cc5C)nc41)(C3)C2 (stereo not drawn) [US12552793, Compound 20-2]

>  <resultNumber>
8.96

$$$$

P. [2H]C1(O)C2CC3CC1CC(n1c(=O)n(C)c4cnc(Nc5cn6ncnc6cc5C)nc41)(C3)C2 (stereo not drawn) [US12552793, Compound 20-1]
Q. [2H]C1(O)C2CC3CC1CC(n1c(=O)n(C)c4cnc(Nc5cc(F)c(C(N)=O)cc5C)nc41)(C3)C2 (stereo not drawn) [US12552793, Compound 23-2]
Q. Given the listed records, identify the one among P and Q with higher pIC50. Pick one; state its label.
A. P
(P: 10.52, Q: 9.07)
